Origin of values: PubChem BioAssay AID2060353

# System: 521955-158-R2-J5-PDC spheroids with stroma, growth inhibition;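 further: spheroids exposed to drugs for seven days before readout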
# experiment-summary: Anticancer human tumor 521955-158-R2-J5-PDC patient-derived pancreatic carcinoma cell line growth inhibition [TAK]
# reported-conditions: second compound 0.949 µM; first compound 0.00316 µM; hits give low values
Entries whose viability, T/C is below 70% take Yes; entries at or above 70% take No.

compound	group-label
CC(C)n1nc(-c2ccc3oc(N)nc3c2)c2c(N)ncnc21 + CC(C)NCC(C(=O)N1CCN(c2ncnc3c2C(C)CC3O)CC1)c1ccc(Cl)cc1	Yes
COc1c(OCCCN2CCOCC2)ccc2c3n(c(=NC(=O)c4cnc(N)nc4)nc12)CCN3 + CC(C)NCC(C(=O)N1CCN(c2ncnc3c2C(C)CC3O)CC1)c1ccc(Cl)cc1	Yes
CC(C)CC(NC(=O)CNC(=O)c1cc(Cl)ccc1Cl)B1OC(=O)CC(CC(=O)O)(C(=O)O)O1 (stereo not given) + CC(C)NCC(C(=O)N1CCN(c2ncnc3c2C(C)CC3O)CC1)c1ccc(Cl)cc1	No
COC1CC2CCC(C)C(O)(O2)C(=O)C(=O)N2CCCCC2C(=O)OC(C(C)CC2CCC(OCCO)C(OC)C2)CC(=O)C(C)C=C(C)C(O)C(OC)C(=O)C(C)CC(C)C=CC=CC=C1C (stereo not given) + CC(C)NCC(C(=O)N1CCN(c2ncnc3c2C(C)CC3O)CC1)c1ccc(Cl)cc1	No
CC(C)CC(NC(=O)C(Cc1ccccc1)NC(=O)c1cnccn1)B(O)O (stereo not given) + CC(C)NCC(C(=O)N1CCN(c2ncnc3c2C(C)CC3O)CC1)c1ccc(Cl)cc1	No
